B1: HDV Ribozyme (parent)
chain: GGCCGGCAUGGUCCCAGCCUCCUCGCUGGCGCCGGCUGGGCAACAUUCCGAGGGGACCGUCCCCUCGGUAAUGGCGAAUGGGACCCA

- Variants of: B1
- Test: self-cleavage, relative activity (ratio to wild type); higher = more cleavage; co-transcriptional
self-cleavage overview

Changes | self-cleavage
U23A U69A | 1.01
U37G C44A | 0.0791
U9G U20A | 0

Please find the next variant below.
QUERY: # get_value(readout='self-cleavage', item= C19U C30A )
RESULT: 0.0449
